subject_of_test: pre-existing anti-VH ADA in human serum
test_protocol: ADA confirmation assay (MSD): 10 ug/mL test material against labelled DOM1H-131-206, mean of 10 sera
recorded_metric: Mean % inhibition of signal in confirmation assay (%)
Number in %, nothing else.

Given the binder DOM1H-131-206 C-terminal S deletion (ΔS) (protein) VH: EVQLLESGGGLVQPGGSLRLSCAASGFTFAHETMVWVRQAPGKGLEWVSHIPPDGQDPFYADSVKGRFTISRDNSKNTLYLQMNSLRAEDTAVYHCALLPKRGPWFDYWGQGTLVTVS , write its reported Mean % inhibition of signal in confirmation assay. 44.7

Given the binder DOM1H-131-206 P14A + C-terminal A (protein) VH: EVQLLESGGGLVQAGGSLRLSCAASGFTFAHETMVWVRQAPGKGLEWVSHIPPDGQDPFYADSVKGRFTISRDNSKNTLYLQMNSLRAEDTAVYHCALLPKRGPWFDYWGQGTLVTVSSA , write its reported Mean % inhibition of signal in confirmation assay. 8.76

Given the binder DOM1H-131-206 L108A (protein, name in Kabat numbering) VH: EVQLLESGGGLVQPGGSLRLSCAASGFTFAHETMVWVRQAPGKGLEWVSHIPPDGQDPFYADSVKGRFTISRDNSKNTLYLQMNSLRAEDTAVYHCALLPKRGPWFDYWGQGTAVTVSS , write its reported Mean % inhibition of signal in confirmation assay. 94.3

Given the binder DOM1H-131-206 L11A (protein, name in Kabat numbering) VH: EVQLLESGGGAVQPGGSLRLSCAASGFTFAHETMVWVRQAPGKGLEWVSHIPPDGQDPFYADSVKGRFTISRDNSKNTLYLQMNSLRAEDTAVYHCALLPKRGPWFDYWGQGTLVTVSS , write its reported Mean % inhibition of signal in confirmation assay. 98
